Every entry's value here was drawn from PubChem BioAssay AID686954.

- TARGET_OR_TEST_SYSTEM: Protein artemis (Homo sapiens)
- ASSAY_TEXT: blockers of Artemis DNA hairpin overhang cleavage – biochemical, fluorescence intensity, FAM/BHQ-1 hairpin substrate, primary screen (AID 686954)
- RECORDED_CONDITIONS: recombinant Artemis, quenched FAM hairpin cleavage fluorescence; at 10 µM; active compounds read high
The whole screen tested about 30,000 compounds, of which about 240 (0.8%) were called active. The sample holds actives, similar compounds and a random draw of the others, so the mix is not that of the screen.
Listed below: inhibition values for each entry.
QUANTITY_NAME: inhibition (%)

[
  {
    "MOLECULE": "CCCC(C)n1[nH]c(=O)c2c(C)cc(C)nc21 (stereo unspecified)",
    "UNIT_DESCRIPTOR": "%",
    "ENDPOINT_VALUE": 0.53
  },
  {
    "MOLECULE": "N=c1c2c3c(sc2nc2n1CCCCC2)CCCC3",
    "UNIT_DESCRIPTOR": "%",
    "ENDPOINT_VALUE": -6.19
  },
  {
    "MOLECULE": "Cc1cccc(-n2cnc(C(=O)Nc3cccnc3)c2)n1",
    "UNIT_DESCRIPTOR": "%",
    "ENDPOINT_VALUE": 9.43
  },
  {
    "MOLECULE": "COC(=O)c1sccc1-n1cccc1C(=O)C(=O)N1CCCCC1",
    "UNIT_DESCRIPTOR": "%",
    "ENDPOINT_VALUE": -4.39
  },
  {
    "MOLECULE": "COc1ccc(-c2cc(C(=O)n3cnc4ccccc43)c3ccccc3n2)cc1",
    "UNIT_DESCRIPTOR": "%",
    "ENDPOINT_VALUE": 0.93
  },
  {
    "MOLECULE": "CC(=O)Oc1ccc(C)cc1N1C(=O)c2ccc(C(=O)O)cc2C1=O",
    "UNIT_DESCRIPTOR": "%",
    "ENDPOINT_VALUE": 0.06
  }
]
